protocolNotes: in vitro
Assay type: cell-based
conditionsUsed: sheep
Square brackets hold non-standard residues; d marks the D form. Side chains are listed from the residue outwards. Peptide text beside a SMILES is read from it. * marks the point of attachment. ξ: configuration not given here. X1 = O=C(O)CCC(=O)NC1=Cc2cc(O)c(O)cc2N2C1=NCCC2C(=O)*; NH(1-OH-2-oxopiperidin-3-yl) = O=C1C(N*)CCCN1O; ξAsp(3ξ-OH) = NC(C(=O)O)C(O)C(=O)O
measuredProperty: hemolysis at 1 h, 1 relative concentration
A complete answer gives the number and then names the unit.

1) CC(O)C(NC(=O)C(CO)NC(=O)C(NC(=O)C(N)CCCCNC(=O)C(CC(=O)O)NC(=O)C1CCN=C2C(NC(=O)CCC(=O)O)=Cc3cc(O)c(O)cc3N21)C(O)C(=O)O)C(=O)NC(CO)C(=O)NC(CCCCN)C(=O)NC1CCCN(O)C1=O (centres unmarked) [pyoverdine 3A06] (H-K([Asp-X1])[ξAsp(3ξ-OH)]STSK-{NH(1-OH-2-oxopiperidin-3-yl)}; configuration not given here)    2.01%

Shifting focus to the compound that follows.
INPUT: Requested read-out: hemolysis at 1 h, 1 relative concentration. Entry: CC(NC(=O)C(NC(=O)C(CO)NC(=O)C(NC(=O)C(N)CCCCNC(=O)C(CC(=O)O)NC(=O)C1CCN=C2C(NC(=O)CCC(=O)O)=Cc3cc(O)c(O)cc3N21)C(O)C(=O)O)C(C)O)C(=O)NC(C(=O)NC(CCCCN)C(=O)NC1CCCN(O)C1=O)C(C)O (centres unmarked) [pyoverdine s3b09] (H-K([Asp-X1])[ξAsp(3ξ-OH)]STATK-{NH(1-OH-2-oxopiperidin-3-yl)}; configuration not given here)
OUTPUT: 5.92%
